- Tested Target: COX-2 (Mus musculus, UniProt Q05769)
- Sequence (Q05769 18-604): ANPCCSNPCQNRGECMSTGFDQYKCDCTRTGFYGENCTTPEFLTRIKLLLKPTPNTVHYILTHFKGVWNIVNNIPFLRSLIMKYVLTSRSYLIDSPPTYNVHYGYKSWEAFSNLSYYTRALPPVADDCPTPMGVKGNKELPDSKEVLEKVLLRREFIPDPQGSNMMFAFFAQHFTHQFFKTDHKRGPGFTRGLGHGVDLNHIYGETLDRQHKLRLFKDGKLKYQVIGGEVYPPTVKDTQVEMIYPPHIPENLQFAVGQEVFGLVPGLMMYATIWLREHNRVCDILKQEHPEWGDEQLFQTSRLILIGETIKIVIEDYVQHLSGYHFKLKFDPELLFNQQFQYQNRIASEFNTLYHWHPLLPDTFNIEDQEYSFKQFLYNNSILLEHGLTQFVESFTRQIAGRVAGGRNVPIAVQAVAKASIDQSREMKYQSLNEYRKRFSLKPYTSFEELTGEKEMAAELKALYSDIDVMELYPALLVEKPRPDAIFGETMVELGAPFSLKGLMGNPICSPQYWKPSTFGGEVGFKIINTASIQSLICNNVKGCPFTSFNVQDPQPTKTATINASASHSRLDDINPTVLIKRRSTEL
- Assay Text: Inhibition of COX-2 oxygenation by acetaminophen and its metabolites
- Assay type: biochemical
- Condition Notes: read-out: IC50 for inhibition of 2-AG oxygenation
Measured Metric: pIC50
One number for each entry, as −log10 of the molar value.

Request: I'd like to know its pIC50. The compound in question is CCCCC/C=C\C/C=C\C/C=C\C/C=C\CCCC(=O)Nc1ccc(O)cc1 [AM-404, N-(4-hydroxyphenyl)arachidonoylamide]
Result: 7.01

---

- Tested Target: COX-2 in lipopolysaccharide-activated RAW264.7 cells (Mus musculus, UniProt Q05769)
- Construct: endogenous in cells
- Sequence (Q05769 18-604): as above
- Assay Text: 2-AG oxygenation by lipopolysaccharide-activated RAW264.7 cells
Measured Metric: IC50 (µM)
Answers are plain numbers, in µM.

Request: Using the record for CCCCC/C=C\C/C=C\C/C=C\C/C=C\CCCC(=O)Nc1ccc(O)cc1 [AM-404, N-(4-hydroxyphenyl)arachidonoylamide] , report its IC50.
Result: 0.046
